B1: ZNF263 (parent)
chain: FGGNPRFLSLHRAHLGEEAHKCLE

Variants of: B1
Assay: protein stability index of a GFP-peptide fusion (GPS, HEK-293T) (PSI 1-6); higher = more stable;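 further: lentivirally expressed fusions sorted by FACS into six bins by GFP to DsRed ratio, PSI derived from sequencing read proportions per bin multiplied by bin number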
Conditions: c terminus: a fixed tail appended
endpointName: protein stability index
Format: numeric value only, no unit, no commentary.

Below, 2 variants whose answers are already recorded.
YGGNPRFLSLHRAHLGEEAHKCLE :: 1.47
FGGNPRFLSLSRAHLGEEAHKCLE :: 3.19

QUERY: Quick one: protein stability index for FGGNPRFTSLHRAHLGEEAHKCLE ?
RESULT: 2.77

QUERY: Quick one: protein stability index for FGGNPRFLSLHRAHAGEEAHKCLE ?
RESULT: 1.83

QUERY: Quick one: protein stability index for FGGNPRFSSLHRAHLGEEAHKCLE ?
RESULT: 2.03

QUERY: Quick one: protein stability index for FGGNPRFLSLHRAHLGHEAHKCLE ?
RESULT: 1.82

QUERY: Quick one: protein stability index for FGGNPVFLSLHRAHLGEEAHKCLE ?
RESULT: 3.33

QUERY: Quick one: protein stability index for FGGNPRFLSLHRAHLGEEAEKCLE ?
RESULT: 2.13

QUERY: Quick one: protein stability index for FGGNPRFLNLHRAHLGEEAHKCLE ?
RESULT: 1.55

QUERY: Quick one: protein stability index for FGGNPRFLSLHRAHLGEEAHKSLE ?
RESULT: 3.62

QUERY: Quick one: protein stability index for FGGNPRFLSLHRAHLGEEKHKCLE ?
RESULT: 1.49

QUERY: Quick one: protein stability index for DGGNPRFLSLHRAHLGEEAHKCLE ?
RESULT: 4.17

QUERY: Quick one: protein stability index for FGGNPRFLSLNRAHLGEEAHKCLE ?
RESULT: 1.8

QUERY: Quick one: protein stability index for FGGNPRFLSLHRAHLGEEANKCLE ?
RESULT: 1.49

QUERY: Quick one: protein stability index for FGGNPRFLSLHRAHLGEEAHKCQE ?
RESULT: 1.92

QUERY: Quick one: protein stability index for FGGNPRFLMLHRAHLGEEAHKCLE ?
RESULT: 1.15

QUERY: Quick one: protein stability index for FGGNPRFLSLHRGHLGEEAHKCLE ?
RESULT: 1.99

QUERY: Quick one: protein stability index for FGGNPIFLSLHRAHLGEEAHKCLE ?
RESULT: 2.58

QUERY: Quick one: protein stability index for FGGNPRFLSLHRAHLGEMAHKCLE ?
RESULT: 1.75

QUERY: Quick one: protein stability index for FGGNPRFLSLHRAHLGLEAHKCLE ?
RESULT: 1.25

QUERY: Quick one: protein stability index for FGGNPRFLSLRRAHLGEEAHKCLE ?
RESULT: 1.91

QUERY: Quick one: protein stability index for FGGNPRFLSLHRAHLGECAHKCLE ?
RESULT: 2.12
